The origin of these recorded values is patent US20220195015A1.

subject-of-test: SARS-CoV-2 spike receptor binding domain (RBD), wild type (SARS-CoV-2, UniProt P0DTC2 319-539)
measurement-protocol: ELISA, RBD protein coated, mAb titrated
measured-attribute: log10 EC50 (log10 of the value in ng/mL)
Please interpret these as log10 of EC50 where EC50 is in ng/mL.

binder	observed-value
C530 (antibody, V domains shown) VH: QVQLVESGGGVAQPGRSLRLSCAASGFTFSRYGMHWVRQAPGKGLEWVAVIWHDGSDKYCADFVKGRFTISRDNSKNTLYMQMDSLRAEDTAVYYCARGGRPDHETGIAVLGEYYFDSWGQGTLVTVSS VL: SYELTQPPSVSVSPGQTARITCSGDAFPLQYGYWYQQKPGQAPVLVIYKDKERPSGISERFSGSSSGTTVTLTISGVQAEDEADYYCQSADTNGVVFGGGTSLTVL	1.02
C529 (antibody, V domains shown) VH: EVQLLESGGGLVQPGGSLRLSCAASGFTFNNYAMNWVRQAPGRGLEWVSGISGSGANTYYADSVKGRFTISRDNPKNTLSLQMNSLRAEDTALYYCAKVLSPTYYDSWSGPDAFDFWGQGTMVTVSS VL: DIQMTQSPSTLSASVGDRVTITCRASQTISPWLAWYQQKPGKAPNLLIYKASSLESGVPSRFSGSGSGTEFTLTISSLQPDDFATYYCQQYNSYSSWTFGQGTKVEIK	0.90
C573 (antibody, V domains shown) VH: QVQLQESGPGLVKPSGTLSLTCAVSGGSISTVNWWSWVRQPPGKGLEWIGEIHHSGNTNHNPSLRSRVTISVDKSKNQFSLKLRSVTAADTAVYYCARDGGRPGDAFDLWGQGTMVTVSS VL: QSALTQPASVSGSPGQSITISCTGTSSDVGGYNYVSWYQQHPGKVPKVMIYDVSNRPSGISNRFSGSKSGNTASLTISGLQAEDEADYYCNSYRSNSTRVFGTGTKVTV	0.34
C572 (antibody, V domains shown) VH: EVQLVESGGGLIKPGRSLRLSCTASGFTFGDYAMTWFRQAPGKGLEWVGFIRSKAYGGTTGYAASVKYRFTISRDDSKSIAYLQMDSLKTEDTAVYYCTRWDGWSQHDYWGQGTLVTVSS VL: DIVMTQSPLSLSVTPGEPASISCRSSQSLLHSNGNNYFDWYLQKPGQSPQLLIYLASNRASGVPDRFSGSGSGTDFTLKISRVEAEDVGVYYCMQVLQIPYTFGQGTKLEI	0.46
C567 (antibody, V domains shown) VH: QVQLQESGPGLVKPSETLSLTCTVSGGSVINGSYYWSWIRQPPGKGLEWIGFVYYSGSTNYNPSLKSRVTISVDTSKNQFSLNLNSVTAADTAVYYCATGSKSSYYFDYWGQGTLVTVSS VL: QSVLTQPPSVSAAPGQKVTISCSGSSSNIGNNYVSWYQQLPGAAPKLLIYENNMRPSGIPDRFSGSKSGTSATLGITGLQTGDEADYYCGTWDSSLSVPYVFGTGTRVTVL	1.28
C595 (antibody, V domains shown) VH: QVQLVESGGGVVQAGRSLRLSCAASGFTFSSFGLHWVRQAPGKGLEWVAVISDDGANKYYADSVKGRFTISRDNSKNTLYLQMNSLRADDTAKYYCAKSWWLSENWFDPWGQGTLVTVSS VL: EIVMTQSPATLSVSPGERATLSCRASQSVRSNLAWYQQKPGQAPRLLIYGASTRATGIPARFSGSGSGTDFTLTISSLQSEDFAVYYCQQYNNWPLTFGGGTKVEIK	0.31
C578 (antibody, V domains shown) VH: QVQLVESGGGVVQPGRSLRLSCAASGFTFSSSGMHWVRQAPGKGLEWVAIISYDGSNKYYADSVKGRFTISRDNSKNTLSLQMNSLRAEDTAVYYCAKDPLPFRDFFYYYMDVWGKGTTVTVSS VL: QSALTQPASVSGSPGQSITISCTGTSSDVGGYNYVSWYQQHPGKAPKLMIYDVSNRPSGVSNRFSGSKSGNTASLTISGLQAEDEADYYCSSYTSSSTLGVFGTGTKVTVL	0.03
C531 (antibody, V domains shown) VH: EVQLVESGGGLVQPGRSLRLSCVATGFTFDDFAMHWVRQAPGKGLEWVSGISWNGGIIGYVDSVKGRFTISRDNAKNSLYLQMNSLRPEDTALYYCVKGYRYYYDILTGYYNDAGAFDYWGQGTLVTVSS VL: DIQSTQSPSFLSASVGDRVAITCRASQGISSYLAWYQQKPGKAPKLLIYPASTLQSGVPSGFSGSGSGTEFTLTISSLQPEDFATYYCQQLNDYPFTFGPGTKVDIK	0.84

Consider the binder shown here: C594 (antibody, V domains shown) VH: QVQLVESGGGVVQPGRSLRLSCAASGFTFSSYGMHWVRQAPGKGLEWVAVISDDGSNKYYADSVKGRFTISRDNSKNTLYLQMNSLRAEDTAVYYCAKSWWLSENWFDPWGQGTLVTVSS VL: EIVMTQSPATLSVSPGERATLSCRASQSVSSNLAWYQQKPGQAPRLLIYGASTRATGIPARFSGTGSGTEFTLTISSLQSEDFAVYYCQQYNNWPLTFGGGTKVEIK What is its recorded log10 EC50?
0.42

I am curious: what log10 EC50 value has been reported for C525 (antibody, V domains shown) VH: EVQLVESGGRLVQPGRSLRLSCAASGFTFDDYAIHWVRQAPGKGLEWVSGISWNSGSIGYADSVRGRFTISRDNAKNSLYLQMNSLRAEDTALYYCAKGLDSSSSASPDYWGQGTLVTVSS VL: DIQMTQSPSSVSASVGDRVTITCRASQDISSWLAWYQQKPGKAPKLLIYLASSLQSGVPSRFSGSGSGTDFILTISSLQPEDFGTYYCQQGNSFPLTFGGGTKVEIK ?
1.03
